Experiment: Photothermal stability of compound in HBSS buffer assessed as thermal relaxation half life measured after pre-illumination of compound to reach cis-isomer
Assay type: physicochemical
Readout Type: half-life (days)

Use these answered entries as a reference point.
{"columns": ["Compound", "Readout Type", "Measurement Unit", "Result Value"],
 "data": [
  ["CC(C)(C)NCC(O)c1ccc(/N=N/c2ccccc2)cc1 (racemic)", "half-life", "days", 29],
  ["CC(C)(C)NCC(O)c1cc(Cl)c(/N=N/c2c(Cl)cccc2Cl)c(Cl)c1 (racemic)", "half-life", "days", 26]
]}

(P) CC(C)(C)NCC(O)c1ccc(/N=N/c2ccccc2)c(Cl)c1 (racemic)
(Q) CC(C)(C)NCC(O)c1cc(Cl)c(/N=N/c2ccccc2)c(Cl)c1 (racemic)
(R) CC(C)(C)NCC(O)c1cc(Cl)c(/N=N/c2ccccc2)c(C#N)c1 (racemic)
Ask: Ordering criterion: half-life; begin with the maximum. Write the labels out in the order the request specifies.
Result: Q, P, R

The origin of these recorded values is ChEMBL document CHEMBL6182934.
